FYI, the data here is from ChEMBL document CHEMBL4680121.

- System: Staphylococcus aureus
- assay_method_text: Antibacterial activity against Staphylococcus aureus ATCC 6538 assessed as bacterial growth inhibition measured after 18 hrs by two-fold serial microdilution method
- Format: functional
In this section we review reported MIC values for a set of molecules.

>  <chemical_smiles>
COc1ccc(-n2nnnc2Nc2ccc(F)cc2)cc1

>  <study_target>
Staphylococcus aureus

>  <MIC>
128 µg/mL

$$$$
>  <chemical_smiles>
COc1ccc(NC(=S)Nc2cccc(Cl)c2)cc1

>  <study_target>
Staphylococcus aureus

>  <MIC>
> 256 µg/mL

$$$$
>  <chemical_smiles>
COc1ccc(NC(=S)Nc2ccc(Br)cc2)cc1

>  <study_target>
Staphylococcus aureus

>  <MIC>
> 256 µg/mL

$$$$
>  <chemical_smiles>
COc1ccc(Nc2nnnn2-c2cccc(F)c2)cc1

>  <study_target>
Staphylococcus aureus

>  <MIC>
> 256 µg/mL

$$$$
>  <chemical_smiles>
COc1ccc(NC(=S)Nc2cccc(Br)c2)cc1

>  <study_target>
Staphylococcus aureus

>  <MIC>
> 256 µg/mL

$$$$
>  <chemical_smiles>
COc1ccc(Nc2nnnn2-c2cccc(Br)c2)cc1

>  <study_target>
Staphylococcus aureus

>  <MIC>
> 256 µg/mL

$$$$
>  <chemical_smiles>
COc1ccc(NC(=S)Nc2ccccc2Br)cc1

>  <study_target>
Staphylococcus aureus

>  <MIC>
> 256 µg/mL

$$$$
>  <chemical_smiles>
COc1ccc(-n2nnnc2Nc2cccc(Cl)c2)cc1

>  <study_target>
Staphylococcus aureus

>  <MIC>
> 256 µg/mL

$$$$
>  <chemical_smiles>
COc1ccc(-n2nnnc2Nc2ccccc2Br)cc1

>  <study_target>
Staphylococcus aureus

>  <MIC>
256 µg/mL

$$$$
>  <chemical_smiles>
COc1ccc(NC(=S)Nc2ccccc2F)cc1

>  <study_target>
Staphylococcus aureus

>  <MIC>
> 256 µg/mL

$$$$
>  <chemical_smiles>
COc1ccc(NC(S)=Nc2ccc(F)cc2)cc1

>  <study_target>
Staphylococcus aureus

>  <MIC>
> 256 µg/mL

$$$$
>  <chemical_smiles>
COc1ccc(NC(=S)Nc2ccccc2Cl)cc1

>  <study_target>
Staphylococcus aureus

>  <MIC>
> 256 µg/mL

$$$$
>  <chemical_smiles>
COc1ccc(-n2nnnc2Nc2cccc(F)c2)cc1

>  <study_target>
Staphylococcus aureus

>  <MIC>
64 µg/mL

$$$$
>  <chemical_smiles>
COc1ccc(Nc2nnnn2-c2ccccc2Br)cc1

>  <study_target>
Staphylococcus aureus

>  <MIC>
> 256 µg/mL

$$$$
>  <chemical_smiles>
COc1ccc(Nc2nnnn2-c2ccccc2Cl)cc1

>  <study_target>
Staphylococcus aureus

>  <MIC>
64 µg/mL

$$$$
>  <chemical_smiles>
COc1ccc(Nc2nnnn2-c2ccc(Cl)cc2)cc1

>  <study_target>
Staphylococcus aureus

>  <MIC>
> 256 µg/mL

$$$$
>  <chemical_smiles>
COc1ccc(Nc2nnnn2-c2ccc(Br)cc2)cc1

>  <study_target>
Staphylococcus aureus

>  <MIC>
> 256 µg/mL

$$$$
>  <chemical_smiles>
COc1ccc(-n2nnnc2Nc2ccccc2Cl)cc1

>  <study_target>
Staphylococcus aureus

>  <MIC>
32 µg/mL

$$$$
